target: KDR (VEGFR2) (Homo sapiens); construct: purchased Invitrogen; assay: In vitro kinase assay (Z'-LYTE), KDR (VEGFR2); type: biochemical; conditions: read-out: % of inhibition of the kinase compared to the control
Sequence (P35968 20-1356): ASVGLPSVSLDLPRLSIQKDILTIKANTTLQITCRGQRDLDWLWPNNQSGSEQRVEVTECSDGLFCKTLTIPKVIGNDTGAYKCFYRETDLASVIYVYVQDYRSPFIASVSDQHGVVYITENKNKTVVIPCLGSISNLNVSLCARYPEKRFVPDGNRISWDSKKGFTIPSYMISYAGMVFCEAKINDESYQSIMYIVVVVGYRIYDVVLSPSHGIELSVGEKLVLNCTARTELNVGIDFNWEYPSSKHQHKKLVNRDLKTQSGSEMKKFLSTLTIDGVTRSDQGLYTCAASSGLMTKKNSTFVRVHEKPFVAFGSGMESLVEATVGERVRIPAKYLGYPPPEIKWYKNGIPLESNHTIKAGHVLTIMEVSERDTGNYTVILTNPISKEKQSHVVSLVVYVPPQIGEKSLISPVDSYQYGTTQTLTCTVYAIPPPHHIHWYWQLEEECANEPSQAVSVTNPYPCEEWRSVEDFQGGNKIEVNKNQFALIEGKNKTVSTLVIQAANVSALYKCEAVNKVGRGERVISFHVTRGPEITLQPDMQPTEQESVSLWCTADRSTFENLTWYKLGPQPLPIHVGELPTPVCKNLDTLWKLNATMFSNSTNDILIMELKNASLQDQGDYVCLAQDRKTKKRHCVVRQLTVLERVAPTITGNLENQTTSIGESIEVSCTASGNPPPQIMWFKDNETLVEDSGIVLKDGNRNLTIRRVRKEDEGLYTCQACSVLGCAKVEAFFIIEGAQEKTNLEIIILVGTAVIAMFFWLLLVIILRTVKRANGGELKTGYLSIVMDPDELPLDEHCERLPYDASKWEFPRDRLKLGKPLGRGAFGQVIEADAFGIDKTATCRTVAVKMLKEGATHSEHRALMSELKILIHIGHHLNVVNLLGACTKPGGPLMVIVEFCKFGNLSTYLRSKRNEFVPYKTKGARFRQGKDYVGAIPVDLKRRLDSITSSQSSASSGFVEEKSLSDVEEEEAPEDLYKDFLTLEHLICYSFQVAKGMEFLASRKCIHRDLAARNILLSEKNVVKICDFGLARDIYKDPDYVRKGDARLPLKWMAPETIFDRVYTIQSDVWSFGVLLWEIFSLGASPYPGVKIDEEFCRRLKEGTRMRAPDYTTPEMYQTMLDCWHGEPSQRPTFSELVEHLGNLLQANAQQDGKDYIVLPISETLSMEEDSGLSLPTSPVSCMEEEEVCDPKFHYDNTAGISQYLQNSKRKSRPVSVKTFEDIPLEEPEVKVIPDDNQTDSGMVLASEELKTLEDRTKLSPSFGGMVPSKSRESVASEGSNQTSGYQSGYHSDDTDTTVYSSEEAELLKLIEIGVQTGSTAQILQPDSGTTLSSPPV
REPORTED METRIC: inhibition at 0.1 µM

{"COMPOUND": "Cc1ccc(NC(=O)c2ccc(CN3CCC(N(C)C)C3)c(C(F)(F)F)c2)cc1CNc1cnc2[nH]c(C(=O)O)cc2c1 (stereo not drawn) [OR0528]", "ASSAY SYSTEM": "KDR (VEGFR2) (Homo sapiens)", "inhibition at 0.1 µM": "≥ 50%"}
{"COMPOUND": "CC(=O)c1cc2cc(NCc3cccc(NC(=O)c4ccc(CN5CCN(C)CC5)c(C(F)(F)F)c4)c3)cnc2[nH]1 [OR0926]", "ASSAY SYSTEM": "KDR (VEGFR2) (Homo sapiens)", "inhibition at 0.1 µM": "≥ 50%"}
{"COMPOUND": "CC(=O)c1cc2cc(NCc3cccc(NC(=O)c4ccc(CN5CC[C@H](N(C)C)C5)c(C(F)(F)F)c4)c3)cnc2[nH]1 [OR0927]", "ASSAY SYSTEM": "KDR (VEGFR2) (Homo sapiens)", "inhibition at 0.1 µM": "≥ 50%"}
{"COMPOUND": "CC(=O)c1cc2cc(NC(=O)c3cc(NC(=O)c4ccc(CN5CCC(N(C)C)C5)c(C(F)(F)F)c4)ccc3C)cnc2[nH]1 (stereo not drawn) [OR0782]", "ASSAY SYSTEM": "KDR (VEGFR2) (Homo sapiens)", "inhibition at 0.1 µM": "≥ 50%"}
{"COMPOUND": "Cc1ccc(NC(=O)c2ccc(CN3CCN(C)CC3)c(C(F)(F)F)c2)cc1C(=O)Nc1cnc2[nH]c(C(=O)O)cc2c1 [OR0810]", "ASSAY SYSTEM": "KDR (VEGFR2) (Homo sapiens)", "inhibition at 0.1 µM": "≥ 50%"}

Exercise: Give inhibition at 0.1 µM for the following compound: CC(=O)c1cc2cc(NCc3cc(NC(=O)c4ccc(C)c(C(F)(F)F)c4)ccc3C)cnc2[nH]1 [OR0890]
Key: < 50%

The measurements presented in this section are drawn from patent US9403823B2.
